PROTOCOL DETAILS: yeast display, Sf9 membrane polyspecificity reagent, FACS + sequencing; frameworks hold sequencing errors
QUANTITY: polyreactivity (PSR sort gate)

The following sequences have reported results that may help.
>>> result_value("QVQLVESGGGLVQARGSLRLSCAASGFIIRWNTKGWYRQAPGKVRELVAAISSRGGSTYYADSVKGRFKISRDNAKNTVYLQMNSRKPEDTAVYYCNAVRGDEYWGLGTQVTVSS")
"high polyreactivity"
>>> result_value("QVQLVESGGGLVQAGGSLRLSCAASGRTFYPYAMGWYRQAPGKERELVAAINRRGGSTYYADSVKGRFTISRDNAKNTVYLQMNSLKPEDTAVYYCAAKTTTPYRYIYYYWGQGTQVTVSS")
"high polyreactivity"
>>> result_value("QVQLVESGGGLVQAGGSLRLTCADSGSILYINAMGRYIQAPGKEREWVAAITYSGGSTYYADSVKGRFTISRDNAKNTVYLQMNSLKPEDTAVYYCAADAVVAGRYDGHDYWGQGTQVTVSS")
"low polyreactivity"
>>> result_value("QVQLVDSGGGLVQAGGSLRLSCAASGLTFQWYTMGWYRPAPGKERELVAAISSRGGSTYYADSVKGRFTISRDNAKNTVYLQMNSLKPEDTAVYYCAAVSGWEHRYDYWGQGTLVTVSS")
"high polyreactivity"
>>> result_value("QVQLVESGGGLVQAGGSLRLSCAASGITFGRYALGWYRQAPGKERELVATITVNGGRTYYADSVKGRFTISRDNAKNTVYLQMNSLKPEDTAVYYCAAERRNSYVLLFKYNYWGQGTQVTVSS")
"low polyreactivity"

// each sequence listed below needs its polyreactivity (PSR sort gate)
1. QVQLVESGGGFVQAGGSLRLSCAASGSIFAYYVMGWYRPAPGTERELGAAITSVGSTNYADSVKGRFTISRDNAKNTVYLQMNSLKPQDTAVYYCADDQYQARYYYWGQGTQVTVSS
2. QVQLVESGGGLVQAGCSLRLTCAASGSTFKKYAKGWYRQAPGKERDFVAAISRGGRTYYAYSVKGRFTISRDNAKNTVYLQMNSLKPEDTAVYYCAAETFGYQEVYFWGQGTQVTVSS

*A*
1: low polyreactivity; 2: high polyreactivity

// each sequence listed below needs its polyreactivity (PSR sort gate)
1. KVQLVESGGGLVQAGASLRLSCAASGSIFATYAMGWYREEPGKERELVAAITSSDGSTNYADSVKGRFTISRDYAKNTVYLQMNSLKPEDTAVYYCATVSPDRTDSDSGFDAGYDYWGQGTQVTLSS
2. QVQLVESGGGLVQAGGSLRLSCAASGYTITQNAMGWYRQAPGKERELVASITSGGSTDYADSVKGRFTISRDNAKNTVYLQMNSLKPEDTAVYYCAAGTATDVASIGATKDYDYWGQGTQVTVSS
3. QVQLVDSWGGLVQAGGSLRLSCAASGSIFYRKAMGCYRQAPGKERELFAAITRSDVRTYYADSVKGRFTISRDNAKNTVYLQMNSLKPEDTAVYYCAALEYGSYQHFGEDYWGQGSQVTVSS
4. QVQLVESGGGLVQARRRLRLSCAASGRTFRENFMGWYRQEPGKEREFVAISSSGASTYYADSVKGRFTISRDNAKNTVYLQMNSLKPEDTAVYYCAAKLYGAPYSKYYYWGHGTQVTVSS

*A*
1: low polyreactivity; 2: low polyreactivity; 3: low polyreactivity; 4: high polyreactivity

Provenance of the data: the nanobody polyreactivity screen of Harvey et al. (2022)
